Listed below: pKd values for each entry.
- Target: UniProt:P52333
pKd: −log10 of the molar value.

Cc1cc(CNc2[nH]nc(Nc3ccc(N4CCN(c5ncccn5)CC4)cc3)c2C(N)=O)cc(C)c1O [Compound 44]
< 6.00
NC(=O)c1c(Nc2ccc(S(N)(=O)=O)cc2)n[nH]c1NCc1ccc(O)cc1 [reference compound]
> 7.30

# value lookup — system UniProt:P52333, readout pKd, item CC1CCN(C2CCN(c3ccc(Nc4n[nH]c(NCc5ccc(O)cc5)c4C(N)=O)cc3)CC2)CC1 [reference compound]
> 7.30

Ok, now NC(=O)c1c(Nc2ccc(N3CCCCC3)cc2)n[nH]c1NCc1ccc(O)cc1 [reference compound]
> 7.30

---

- Target: JAK3 (Homo sapiens, UniProt P52333)
- Sequence (P52333 811-1124 limits assumed): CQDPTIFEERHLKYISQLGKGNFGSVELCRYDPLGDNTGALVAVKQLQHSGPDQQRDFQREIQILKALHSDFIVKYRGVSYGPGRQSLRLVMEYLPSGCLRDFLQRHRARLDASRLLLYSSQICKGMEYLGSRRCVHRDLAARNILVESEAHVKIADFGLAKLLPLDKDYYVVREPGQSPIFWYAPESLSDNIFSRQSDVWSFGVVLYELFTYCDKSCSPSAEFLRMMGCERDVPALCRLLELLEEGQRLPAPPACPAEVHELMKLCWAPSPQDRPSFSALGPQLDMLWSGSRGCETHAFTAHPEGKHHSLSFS
Listed below: Kd values for each entry.

// known answers, use as guide
COc1cccc(C(=O)Nc2ccc(Nc3n[nH]c(NCc4cc(C)c(O)c(C)c4)c3C(N)=O)cc2)c1
> 1 µM
Cc1cc(CNc2[nH]nc(Nc3ccc(N4C[C@@H](C)O[C@@H](C)C4)c(Cl)c3)c2C(N)=O)cc(C)c1O
> 1 µM
Cc1cc(Nc2n[nH]c(NCc3ccc(O)cc3)c2C(N)=O)cnc1N1CCN(C)CC1 [reference compound]
< 0.05 µM

Sample NC(=O)c1c(Nc2ccc(N3CCC(F)CC3)cc2)n[nH]c1NCc1ccc(O)cc1 [reference compound] — what was its Kd?
< 0.05 µM

Ok, now `COc1cccc(Nc2n[nH]c(NCc3cc(C)c(O)c(C)c3)c2C(N)=O)c1`
> 1 µM

Ok, now NC(=O)c1c(Nc2ccc(-n3cccc3)cc2)n[nH]c1NCc1ccc(O)cc1 [reference compound]
< 0.05 µM

Ok, now `Cc1cc(CNc2[nH]nc(Nc3ccc(N4CCOCC4)cc3)c2C(N)=O)cc(C)c1O`
> 1 µM

Ok, now NC(=O)c1c(Nc2ccc(-c3cc[nH]n3)cc2)n[nH]c1NCc1ccc(O)cc1 [reference compound]
< 0.05 µM

---

The reader will find pKd measurements below, all made with kinase domain protein of RC kinase (RCK) (Homo sapiens).
Sequence (Q56UN5 1061-1324 limits assumed): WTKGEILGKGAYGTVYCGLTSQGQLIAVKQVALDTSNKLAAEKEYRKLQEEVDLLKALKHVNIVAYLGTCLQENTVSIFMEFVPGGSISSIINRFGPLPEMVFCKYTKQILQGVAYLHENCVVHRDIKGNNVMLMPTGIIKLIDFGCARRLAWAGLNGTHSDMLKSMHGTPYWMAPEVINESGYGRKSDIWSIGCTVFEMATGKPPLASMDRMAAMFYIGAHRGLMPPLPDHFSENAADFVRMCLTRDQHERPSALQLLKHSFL
pKd: −log10 of the molar value.

// known answers, use as guide
NC(=O)c1c(Nc2ccc(N3CCOCC3=O)cc2)n[nH]c1NCc1ccc(O)cc1 [reference compound]
> 7.30
Cc1cc(CNc2[nH]nc(Nc3cccc(Cl)c3)c2C(N)=O)cc(C)c1O [reference compound]
< 6.00
Cc1cc(CNc2[nH]nc(Nc3ccc(-c4ccccn4)cc3)c2C(N)=O)cc(C)c1O
7.00 to 7.30

Consider the additional compound presented here.
Sample Cc1cc(Nc2n[nH]c(NCc3ccc(O)cc3)c2C(N)=O)ccc1N1CCN(C)CC1 [reference compound] — what was its pKd?
> 7.30

---

- Target: JAK3 (Homo sapiens, UniProt P52333)
- Construct: made in house; host or cells: E. coli BL21-derived host (T7 phage) or HEK-293
- Test description: Kinase competition binding assay (Kd, qPCR readout), JAK3
- Condition summary: Kd class, JAK3; read-out: JAK3 Activity Level
pKd: −log10 of the molar value.
Parameter: pKd

// known answers, use as guide
Cc1cc(CNc2[nH]nc(Nc3ccc(-n4ccnc4)cc3)c2C(N)=O)cc(C)c1O [Compound 19]
< 6.00
Cc1cc(CNc2[nH]nc(Nc3cccc(Cl)c3)c2C(N)=O)cc(C)c1O [reference compound]
< 6.00

Sample CC(C)C1CCN(c2ccc(Nc3n[nH]c(NCc4ccc(O)cc4)c3C(N)=O)cc2)CC1 [reference compound] — what was its pKd?
6.00 to 7.00

Ok, now Cc1cc(Nc2n[nH]c(NCc3ccc(O)cc3)c2C(N)=O)ccc1N1CCCCC1 [reference compound]
7.00 to 7.30

Ok, now NC(=O)c1c(Nc2ccc(N3CCOCC3)cc2)n[nH]c1NCc1ccc(O)cc1 [reference compound]
> 7.30

Ok, now `Cc1cc(CNc2[nH]nc(Nc3ccc(-c4cnco4)cc3)c2C(N)=O)cc(C)c1O`
< 6.00

Ok, now C[C@@H]1CN(c2ccc(Nc3n[nH]c(NCc4ccc(O)cc4)c3C(N)=O)cc2Cl)C[C@H](C)O1 [reference compound]
> 7.30

Ok, now `Cc1cc(CNc2[nH]nc(Nc3ccc(NC(=O)c4ccc(C(F)(F)F)cc4)cc3)c2C(N)=O)cc(C)c1O`
< 6.00

Ok, now CN1CCN(c2ccc(Nc3n[nH]c(NCc4ccc(O)cc4)c3C(N)=O)cc2Cl)CC1 [reference compound]
> 7.30

Ok, now `Cc1cc(CNc2[nH]nc(Nc3ccc(N4CCOCC4)c(Cl)c3)c2C(N)=O)cc(C)c1O`
< 6.00

Recorded values, source patent US9730914B2.
